assay.remarks: AUC (0 to infinity) in mouse at 5 mg/kg, po
Type: ADME, organism-based
Parameters: dose 5 mg/kg, route oral, time infinity
measurement.setup: in vivo
metric: AUC(0-inf) (ng·h/mL)

(A) CNC(=O)c1ccc2c(c1)nc(-c1ccccc1SC)n2[C@@H]1CCC[C@H](NC(=O)c2ccc(Br)s2)C1 (relative stereo)
(B) CNC(=O)c1ccc2c(c1)nc(-c1ccccn1)n2[C@@H]1CCC[C@H](NC(=O)c2ccc(Br)s2)C1 (relative stereo)
Hi there! Just curious which has the higher AUC(0-inf) between A and B . Indicate which entry you chose by stating its label.
B

---

assay.remarks: Half life of compound in mouse at 1 mg/kg, iv
Format: ADME, organism-based
measurement.setup: in vivo
metric: half-life (h)

(A) CNC(=O)c1ccc2c(c1)nc(-c1ccccc1SC)n2[C@@H]1CCC[C@H](NC(=O)c2ccc(Br)s2)C1 (relative stereo)
(B) CNC(=O)c1ccc2c(c1)nc(-c1ccccn1)n2[C@@H]1CCC[C@H](NC(=O)c2ccc(Br)s2)C1 (relative stereo)
Just tell me: smaller half-life value, A or B ? Bench note: the answer is the label of the chosen record.
A
